Data credit: patent US20180016327A1

// reported % binding (parent = 100) for each item listed
biological target: T1, human C5 (human, UniProt P01031 19-673; P01031 678-1676, Beta and alpha chains are disulfide-linked and the protein is glycosylated.); experiment: Biacore, captured antibody, pH 7.4, 37 C;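 also: biacore binding response of anti-C5 antibody light chain variants captured on chip with human C5 injected, ACES running buffer containing 1.2 mM CaCl₂, parent light chain antibody set to 100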
T1 construct: Either in-house recombinant C5 or plasma derived C5 (CALBIOCHEM) was used; also called recombinant human C5; plasma derived human C5
assay.readout: % binding (parent = 100) (%)

binder: CFP0011 11L 53N (antibody, V domains shown) VH: QVQLVQSGAEVKKPGSSVKVSCKASGGTFSSYAISWVRQAPGQGLEWMGGIIPIFGTANYAQKFQGRVTITADESTSTAYMELSSLRSEDTAVYYCARDMSEFLGWSNYYSYPMDVWGQGTTVTVSS VL: DIQMTQSPSSLSASVGDRVTITCRASQSIEDDLAWYQQKPGKAPKLLIYHASNLQSGVPSRFSGSGSGTDFTLTISSLQPEDFATYYCQQSDNSPYTFGQGTKVEIK
assay.readout: % binding (parent = 100)
measure.unit: %
obs.value: 105

binder: CFP0021 21L 94S (antibody, V domains shown) VH: QVQLVESGGGLVQPGGSLRLSCAASGFTFSDHYMDWVRQAPGKGLEWVGRTRNKANSYTTEYAASVKGRFTISRDDSKNSLYLQMNSLKTEDTAVYYCARTGMMYWGIFDVWGQGTLVTVSS VL: DIQMTQSPSSLSASVGDRVTITCRASQSIEDDLAWYQQKPGKAPKLLIYHASTLQSGVPSRFSGSGSGTDFTLTISSLQPEDFATYYCQQHDSSPLTFGQGTKVEIK
assay.readout: % binding (parent = 100)
measure.unit: %
obs.value: 0.3

binder: CFP0018 18L 93N (antibody, V domains shown) VH: QVQLVQSGAEVKKPGSSVKVSCKASGGTFSSYAISWVRQAPGQGLEWMGGIIPIFGTANYAQKFQGRVTITADESTSTAYMELSSLRSEDTAVYYCARQLYGYYELDIWGQGTLVTVSS VL: DIQMTQSPSSLSASVGDRVTITCRASQSISDDLAWYQQKPGKAPKLLIYEASSLQSGVPSRFSGSGSGTDFTLTISSLQPEDFATYYCQQYNNYPLTFGQGTKVEIK
assay.readout: % binding (parent = 100)
measure.unit: %
obs.value: 107
